- tgt: KRAS G12V (Homo sapiens, UniProt P01116, G12V)
- Sequence (P01116 1-188 isoform P01116-2 G12V): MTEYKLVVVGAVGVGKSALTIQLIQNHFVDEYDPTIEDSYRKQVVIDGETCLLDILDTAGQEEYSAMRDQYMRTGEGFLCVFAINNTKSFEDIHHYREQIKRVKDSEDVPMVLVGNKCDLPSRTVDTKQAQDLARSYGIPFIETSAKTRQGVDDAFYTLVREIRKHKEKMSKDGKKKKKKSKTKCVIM
- experiment-notes: GDP-GTP exchange assay (KRAS G12V);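 note: one dagger IC50 up to 100 nM and two daggers above 100 nM up to 1 μM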
- Assay type: biochemical
- conditions: bodipy-GDP/GppNHp exchange with SOS1; 3 h incubation after GppNHp-SOS1
attribute-measured: G12V_exchange (KRAS_G12V exchange assay IC50)

Please review the entries below; each comes with its answer.
Cc1cccnc1N1C[C@@H]2C[C@H](C1)N(C(=O)C1CC1)[C@H]2c1cc2c(C)nc3c(F)c(-c4cccc(Cl)c4Cl)c(CCC#N)cc3c2n1[C@H]1[C@H]2CN[C@@H]1C2 (atropisomer, axis not shown; (Ra)) [Example 48] ... †
Cc1nc2c(F)c(-c3cccc(Cl)c3Cl)c(CCC#N)cc2c2c1cc([C@H]1[C@H]3C[C@H](CN(c4cccc(OC(F)F)c4)C3)N1C(=O)C1CC1)n2[C@H]1[C@H]2CN[C@@H]1C2 (atropisomer, axis not shown; (Ra)) [Example 26] ... †
Cc1nc2c(F)c(-c3cccc(Cl)c3Cl)c(CCC#N)cc2c2c1cc([C@H]1[C@H]3C[C@H](CN(c4ncccn4)C3)N1C(=O)C1CC1)n2[C@H]1[C@H]2CN[C@@H]1C2 (atropisomer, axis not shown; (Ra)) [Example 33] ... †
Cc1nc2c(F)c(-c3cccc(Cl)c3Cl)c(CCC#N)cc2c2c1cc([C@H]1[C@H]3C[C@H](CN(c4ncc(C)n4C)C3)N1C(=O)C1CC1)n2[C@H]1[C@H]2CN[C@@H]1C2 (atropisomer, axis not shown; (Ra)) [Example 101] ... †

Now for another entry.
Ask: Item Cc1nc2c(F)c(-c3cccc(Cl)c3Cl)c(CCC#N)cc2c2c1cc(C1C3CC(CN(C)C3=O)N1C(=O)C1CC1)n2C1C2CNC1C2 (atropisomer, axis not shown; (Ra)) [Example 112] has what recorded G12V_exchange (KRAS_G12V exchange assay IC50)?
Reply: †

---

- tgt: KRAS G12D (Homo sapiens, UniProt P01116, G12D)
- Sequence (P01116 1-188 isoform P01116-2 G12D): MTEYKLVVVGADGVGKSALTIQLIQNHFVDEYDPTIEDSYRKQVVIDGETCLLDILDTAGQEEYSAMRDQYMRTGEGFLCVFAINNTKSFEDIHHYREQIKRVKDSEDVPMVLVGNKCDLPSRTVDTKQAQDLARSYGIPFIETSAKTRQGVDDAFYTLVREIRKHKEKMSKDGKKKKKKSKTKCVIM
- experiment-notes: GDP-GTP exchange assay (KRAS G12D);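 note: one dagger IC50 up to 100 nM and two daggers above 100 nM up to 1 μM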
- Format: biochemical
- conditions: bodipy-GDP/GppNHp exchange with SOS1; 4 h pre-incubation, 2 h reaction
attribute-measured: G12D_exchange (KRAS_G12D exchange assay IC50)

Please review the entries below; each comes with its answer.
Cc1nc2c(F)c(-c3cccc(Cl)c3Cl)c(CCC#N)cc2c2c1cc([C@H]1[C@H]3C[C@H](CN(c4cc(C(F)F)c(F)cn4)C3)N1C(=O)C1CC1)n2[C@H]1[C@H]2CN[C@@H]1C2 (atropisomer, axis not shown; (Ra)) ... †
Cc1nc2c(F)c(-c3cccc(Cl)c3Cl)c(CCC#N)cc2c2c1cc([C@H]1[C@H]3C[C@H](CN(c4ccc(OC(F)(F)F)cc4)C3)N1C(=O)C1CC1)n2[C@H]1[C@H]2CN[C@@H]1C2 (atropisomer, axis not shown; (Ra)) ... ††
Cc1nc2c(F)c(-c3cccc(Cl)c3Cl)c(CCC#N)cc2c2c1cc([C@H]1[C@H]3C[C@H](CN(c4ccc(F)cc4)C3)N1C(=O)C1CC1)n2[C@H]1[C@H]2CN[C@@H]1C2 (atropisomer, axis not shown; (Ra)) ... †
Cc1nc2c(F)c(-c3cccc(Cl)c3Cl)c(CCC#N)cc2c2c1cc([C@H]1[C@H]3C[C@H](CN(c4cccc(OC(F)F)n4)C3)N1C(=O)C1CC1)n2[C@H]1[C@H]2CN[C@@H]1C2 (atropisomer, axis not shown; (Ra)) ... †
Cc1nc2c(F)c(-c3cccc(Cl)c3Cl)c(CCC#N)cc2c2c1cc([C@H]1[C@@H]3COC[C@@H](C3)N1C(=O)C1CC1)n2[C@H]1[C@H]2CN[C@@H]1C2 (atropisomer, axis not shown; (Ra)) ... †

Ask: Item Cc1nc2c(F)c(-c3cccc(Cl)c3Cl)c(CCC#N)cc2c2c1cc([C@H]1[C@H]3C[C@H](CN(c4ccn(C(F)F)c(=O)c4)C3)N1C(=O)C1CC1)n2[C@H]1[C@H]2CN[C@@H]1C2 (atropisomer, axis not shown; (Ra)) has what recorded G12D_exchange (KRAS_G12D exchange assay IC50)?
Reply: †

Ask: Item Cc1nc2c(F)c(-c3cccc(Cl)c3Cl)c(CCC#N)cc2c2c1cc([C@H]1[C@H]3C[C@H](CN(c4ccn(CC(C)C)c(=O)c4)C3)N1C(=O)C1CC1)n2[C@H]1[C@H]2CN[C@@H]1C2 (atropisomer, axis not shown; (Ra)) has what recorded G12D_exchange (KRAS_G12D exchange assay IC50)?
Reply: †

Ask: Item Cc1nc2c(F)c(-c3cccc(Cl)c3Cl)c(CCC#N)cc2c2c1cc([C@H]1[C@H]3C[C@H](CN(c4cnn(C(F)F)c4)C3)N1C(=O)C1CC1)n2[C@H]1[C@H]2CN[C@@H]1C2 (atropisomer, axis not shown; (Ra)) has what recorded G12D_exchange (KRAS_G12D exchange assay IC50)?
Reply: †

Ask: Item Cc1nc2c(F)c(-c3cccc(Cl)c3Cl)c(CCC#N)cc2c2c1cc([C@H]1[C@H]3C[C@H](CN(S(=O)(=O)N4CCOCC4)C3)N1C(=O)C1CC1)n2[C@H]1[C@H]2CN[C@@H]1C2 (atropisomer, axis not shown; (Ra)) has what recorded G12D_exchange (KRAS_G12D exchange assay IC50)?
Reply: ††

---

- tgt: KRAS G12D (Homo sapiens, UniProt P01116, G12D)
- experiment-notes: GDP-GTP exchange assay (KRAS G12D);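 note: one dagger IC50 up to 100 nM and two daggers above 100 nM up to 1 μM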
- Type: biochemical
- conditions: bodipy-GDP/GppNHp exchange with SOS1; 4 h pre-incubation, 2 h reaction
attribute-measured: G12D_exchange (KRAS_G12D exchange assay IC50)

Cc1nc2c(F)c(-c3cccc(Cl)c3Cl)c(CCC#N)cc2c2c1cc([C@H]1[C@H]3C[C@H](CN(c4ccnc(C#N)c4)C3)N1C(=O)C1CC1)n2[C@H]1[C@H]2CN[C@@H]1C2 (atropisomer, axis not shown; (Ra)) ... †
Cc1nc2c(F)c(-c3cccc(Cl)c3Cl)c(CCC#N)cc2c2c1cc([C@H]1[C@H]3C[C@H](CN(c4ccc(C(F)(F)F)nc4)C3)N1C(=O)C1CC1)n2[C@H]1[C@H]2CN[C@@H]1C2 (atropisomer, axis not shown; (Ra)) ... †
Cc1nc2c(F)c(-c3cccc(Cl)c3Cl)c(CCC#N)cc2c2c1cc([C@H]1[C@H]3C[C@H](CN(c4ccn5ccnc5c4)C3)N1C(=O)C1CC1)n2[C@H]1[C@H]2CN[C@@H]1C2 (atropisomer, axis not shown; (Ra)) ... †
Cc1nc2c(F)c(-c3cccc(Cl)c3Cl)c(CCC#N)cc2c2c1cc([C@H]1[C@H]3C[C@H](CN(c4ccc(OC(F)(F)F)cc4F)C3)N1C(=O)C1CC1)n2[C@H]1[C@H]2CN[C@@H]1C2 (atropisomer, axis not shown; (Ra)) ... ††

---

- experiment-notes: Caco2 assay (permeability, Papp A-B)
- Format: in vitro ADME
- conditions: human, Caco-2, absorptive direction (A-B), 50 μM test compound, 4% BSA in receiver
attribute-measured: Papp A→B at 120 min, 50 μM

Cc1nc2c(F)c(-c3cccc(Cl)c3Cl)c(CCC#N)cc2c2c1cc([C@H]1[C@H]3C[C@H](CN(c4nccc(C(F)F)n4)C3)N1C(=O)C1CC1)n2[C@H]1[C@H]2CN[C@@H]1C2 (atropisomer, axis not shown; (Ra)) [Example 87] ... ≤ 0.5 ×10⁻⁶ cm/s

Ask: Item COc1ccnc(N2C[C@@H]3C[C@H](C2)N(C(=O)C2CC2)[C@H]3c2cc3c(C)nc4c(F)c(-c5cccc(Cl)c5Cl)c(CCC#N)cc4c3n2[C@H]2[C@H]3CN[C@@H]2C3)c1F (atropisomer, axis not shown; (Ra)) [Example 55] has what recorded Papp A→B at 120 min, 50 μM?
Reply: 0.5 to 1 ×10⁻⁶ cm/s

Ask: Item Cc1c(N2C[C@@H]3C[C@H](C2)N(C(=O)C2CC2)[C@H]3c2cc3c(C)nc4c(F)c(-c5cccc(Cl)c5Cl)c(CCC#N)cc4c3n2[C@H]2[C@H]3CN[C@@H]2C3)ccnc1F (atropisomer, axis not shown; (Ra)) [Example 76] has what recorded Papp A→B at 120 min, 50 μM?
Reply: 0.5 to 1 ×10⁻⁶ cm/s

---

- tgt: KRAS G12D (Homo sapiens, UniProt P01116, G12D)
- experiment-notes: GDP-GTP exchange assay (KRAS G12D);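 note: one dagger IC50 up to 100 nM and two daggers above 100 nM up to 1 μM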
- Format: biochemical
- conditions: bodipy-GDP/GppNHp exchange with SOS1; 4 h pre-incubation, 2 h reaction
attribute-measured: G12D_exchange (KRAS_G12D exchange assay IC50)

Cc1nc2c(F)c(-c3cccc(Cl)c3Cl)c(CCC#N)cc2c2c1cc([C@H]1[C@H]3C[C@H](CN(c4ccncc4)C3)N1C(=O)C1CC1)n2[C@H]1[C@H]2CN[C@@H]1C2 (atropisomer, axis not shown; (Ra)) ... †
Cc1nc2c(F)c(-c3cccc(Cl)c3Cl)c(CCC#N)cc2c2c1cc([C@H]1[C@H]3C[C@H](CN(c4ncnn4C)C3)N1C(=O)C1CC1)n2[C@H]1[C@H]2CN[C@@H]1C2 (atropisomer, axis not shown; (Ra)) ... †
Cc1nc2c(F)c(-c3cccc(Cl)c3Cl)c(CCC#N)cc2c2c1cc([C@H]1[C@H]3C[C@H](CN(c4ccccc4)C3)N1C(=O)C1CC1)n2[C@H]1[C@H]2CN[C@@H]1C2 (atropisomer, axis not shown; (Ra)) ... ††
